conditions: pampa; 60.0 min; 50.0 µM
// Papp lookup, one value per entry

STRUCTURE_SMILES_STRING: CC(=O)N1CCN(C(=O)c2ccc(-c3ncc4cnc(-c5cccc(F)c5)cn34)cc2)CC1
Papp: < 1 ×10⁻⁶ cm/s

STRUCTURE_SMILES_STRING: CC(C)C[C@H](NC(=O)CNC(=O)c1cc(Cl)ccc1Cl)B1OC(=O)C(CC(=O)O)(CC(=O)O)O1
Papp: < 1 ×10⁻⁶ cm/s

STRUCTURE_SMILES_STRING: Cc1cccc(NC(=O)c2ccc(C(F)(F)F)cc2C(=O)O)n1
Papp: < 1 ×10⁻⁶ cm/s

Moving on to the next compound.
# input compound: Cc1c2ccncc2c(C)c2c1[nH]c1ccccc12 ; wanted: its Papp
> 300 ×10⁻⁶ cm/s
